# System: CYP2B6
# assay_summary: CYP2B6 enzyme induction assay in cryopreserved primary human hepatocytes (PHH);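 as to Assigned classification CYP2B6: code 1 means positive inducer and 0 means non-inducer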
# Type: in vitro ADME
# measurement_context: PHH; Lab 1; batch 8 0 8
reported_property: Assigned classification CYP2B6
Reply briefly: the number, and no unit.

// known answers, use as guide
compound	Assigned classification CYP2B6
COc1ccc2[nH]c([S+]([O-])Cc3ncc(C)c(OC)c3C)nc2c1 (centres unmarked)	0
COc1ccccc1Oc1c(NS(=O)(=O)c2ccc(C(C)(C)C)cc2)nc(-c2ncccn2)nc1OCCO [Bosentan hydrate]	1
O=C1Nc2ccc(Cl)cc2[C@@](C#CC2CC2)(C(F)(F)F)O1	1
NC(=O)N1c2ccccc2C=Cc2ccccc21 [Carbamazepine]	0

Proceeding to the next compound to report its Assigned classification CYP2B6.
// fetch Assigned classification CYP2B6 given entry O=C1NC(=O)C(c2ccccc2)(c2ccccc2)N1 [Phenytoin sodium] 0

====

# System: CYP1A2
# assay_summary: CYP1A2 enzyme induction assay in cryopreserved HepaRG cells (phenacetin probe, LC/MS); also: key: 1=Positive=inducer; 0=Negative=non-inducer
# Type: in vitro ADME, human
# measurement_context: HepaRG; Lab 1; batch 20
Structures can show the parent of a compound that is named as a salt.
reported_property: Assigned classification CYP1A2
Reply briefly: the number, and no unit.

// known answers, use as guide
compound	Assigned classification CYP1A2
NC(=O)N1c2ccccc2C=Cc2ccccc21 [Carbamazepine]	1
COCCc1ccc(OCC(O)CNC(C)C)cc1 (stereo not shown) [Metoprolol]	0

# return Assigned classification CYP1A2 for CC(C)NCC(O)c1ccc(NS(C)(=O)=O)cc1 (stereo not shown) [Sotalol hydrochloride] , test system: CYP1A2 0

# return Assigned classification CYP1A2 for COc1ccccc1Oc1c(NS(=O)(=O)c2ccc(C(C)(C)C)cc2)nc(-c2ncccn2)nc1OCCO [Bosentan hydrate] , test system: CYP1A2 1

# return Assigned classification CYP1A2 for COc1ccc2[nH]c([S+]([O-])Cc3ncc(C)c(OC)c3C)nc2c1 (stereo not shown) [Omeprazole] , test system: CYP1A2 1

# return Assigned classification CYP1A2 for CO[C@H]1/C=C/O[C@@]2(C)Oc3c(C)c(O)c4c(O)c(c(/C=N/N5CCN(C)CC5)c(O)c4c3C2=O)NC(=O)/C(C)=C\C=C\[C@H](C)[C@H](O)[C@@H](C)[C@@H](O)[C@@H](C)[C@H](OC(C)=O)[C@@H]1C [Rifampicin] , test system: CYP1A2 1

# return Assigned classification CYP1A2 for O=C1NC(=O)C(c2ccccc2)(c2ccccc2)N1 [Phenytoin sodium] , test system: CYP1A2 1

====

# System: CYP2B6
# assay_summary: CYP2B6 enzyme induction assay in cryopreserved primary human hepatocytes (PHH)
# Type: in vitro ADME
# measurement_context: CYP2B6, PHH
Structures can show the parent of a compound that is named as a salt.
reported_property: Prediction in vivo inducer

// known answers, use as guide
compound	Prediction in vivo inducer
CO[C@H]1/C=C/O[C@@]2(C)Oc3c(C)c(O)c4c(O)c(c(/C=N/N5CCN(C)CC5)c(O)c4c3C2=O)NC(=O)/C(C)=C\C=C\[C@H](C)[C@H](O)[C@@H](C)[C@@H](O)[C@@H](C)[C@H](OC(C)=O)[C@@H]1C	Yes
O=C1NC(=O)C(c2ccccc2)(c2ccccc2)N1 [Phenytoin sodium]	Yes
CC(C)NCC(O)c1ccc(NS(C)(=O)=O)cc1 (centres unmarked) [Sotalol hydrochloride]	No
COc1ccccc1Oc1c(NS(=O)(=O)c2ccc(C(C)(C)C)cc2)nc(-c2ncccn2)nc1OCCO [Bosentan hydrate]	Yes
COc1ccc2[nH]c([S+]([O-])Cc3ncc(C)c(OC)c3C)nc2c1 (centres unmarked)	No
NC(=O)N1c2ccccc2C=Cc2ccccc21 [Carbamazepine]	Yes
O=C1Nc2ccc(Cl)cc2[C@@](C#CC2CC2)(C(F)(F)F)O1	Yes

Proceeding to the next compound to report its Prediction in vivo inducer.
# return Prediction in vivo inducer for `CO[C@H]1/C=C/O[C@@]2(C)Oc3c(C)c(O)c4c(c3C2=O)C2=NC3(CCN(CC(C)C)CC3)NC2=C(NC(=O)/C(C)=C\C=C\[C@H](C)[C@H](O)[C@@H](C)[C@@H](O)[C@@H](C)[C@H](OC(C)=O)[C@@H]1C)C4=O` , test system: CYP2B6 Yes
